The values you see were collected from patent US20200121803A1.

Target: T1, human CD98 on the cell surface (human)
T1 chain: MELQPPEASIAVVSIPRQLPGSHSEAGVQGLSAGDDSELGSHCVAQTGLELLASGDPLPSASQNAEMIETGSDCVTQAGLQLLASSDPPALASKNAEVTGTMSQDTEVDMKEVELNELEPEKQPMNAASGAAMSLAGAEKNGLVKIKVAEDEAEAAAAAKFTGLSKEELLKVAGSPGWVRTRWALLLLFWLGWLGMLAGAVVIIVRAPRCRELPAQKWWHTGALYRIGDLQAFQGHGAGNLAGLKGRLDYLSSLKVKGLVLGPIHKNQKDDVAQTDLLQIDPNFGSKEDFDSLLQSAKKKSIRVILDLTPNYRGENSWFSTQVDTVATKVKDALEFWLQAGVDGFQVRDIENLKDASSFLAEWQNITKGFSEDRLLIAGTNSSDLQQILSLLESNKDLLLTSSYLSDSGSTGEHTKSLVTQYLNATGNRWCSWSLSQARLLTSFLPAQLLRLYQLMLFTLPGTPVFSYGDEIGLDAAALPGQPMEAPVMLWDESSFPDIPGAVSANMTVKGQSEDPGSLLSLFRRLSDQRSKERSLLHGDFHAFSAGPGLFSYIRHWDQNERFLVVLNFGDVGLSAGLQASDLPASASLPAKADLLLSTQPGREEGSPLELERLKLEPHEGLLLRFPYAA
Experiment: cell-based or functional assay
quantity-measured: ADC potency, IC50 (nM), H2170 (NSCLC) growth inhibition
Give the quantity in nM, number only.

Q. Recorded ADC potency, IC50 (nM), H2170 (NSCLC) growth inhibition for ChAb15-CZ (other, synthon CZ on reduced interchain Cys of the constant regions (sites not numbered)) VH: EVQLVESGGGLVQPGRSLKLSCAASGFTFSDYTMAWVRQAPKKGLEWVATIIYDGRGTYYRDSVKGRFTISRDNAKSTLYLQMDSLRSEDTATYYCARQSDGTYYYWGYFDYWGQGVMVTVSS VL: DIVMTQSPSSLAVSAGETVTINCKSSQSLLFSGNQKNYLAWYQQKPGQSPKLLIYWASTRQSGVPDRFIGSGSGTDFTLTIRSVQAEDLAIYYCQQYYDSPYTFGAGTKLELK , please?
A. 0.137

Q. Try ChAb1-CZ (other, synthon CZ on reduced interchain Cys of the constant regions (sites not numbered)) VH: EVKLVESGGGLVQPGGSLRLSCATSGFTFTDYYMSWVRQPPGKALEWLGFIRNPANVYTTEYSASVKGRFTISRDNSQSILYLQMNTLRAEDSATYYCARASYGNSEGWFAYWGQGTLVTVSA VL: DIVMSQSPSSLAVSVGEKVTMSCKSSQNLLYNNNQKNYLAWYQQKPGQSPKLLIYWASTRESGVPDRFTGSGSGTDFTLTISSVKAEDLAVYYCQQYYSYPRTFGGGTKLEIK next.
A. 0.276

Q. Try ChAb8-CZ (other, synthon CZ on reduced interchain Cys of the constant regions (sites not numbered)) VH: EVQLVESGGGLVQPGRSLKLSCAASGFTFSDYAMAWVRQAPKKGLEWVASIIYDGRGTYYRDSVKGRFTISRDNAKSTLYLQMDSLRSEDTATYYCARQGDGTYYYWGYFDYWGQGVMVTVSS VL: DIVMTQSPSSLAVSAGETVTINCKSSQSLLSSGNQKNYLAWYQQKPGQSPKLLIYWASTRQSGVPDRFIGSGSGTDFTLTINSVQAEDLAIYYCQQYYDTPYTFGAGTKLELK next.
A. 0.112
